- System: PC3
- protocol-text: Anti-proliferative MTT assay, PC3
- Assay type: cell-based
- assay-setup: Homo sapiens, PC-3, 144 h; PC3, day 6; read-out: IC50 Day 6
measurement-name: IC50

-- ask Query (compound): CC[N+]1(CC)CCCN(c2ccccc2)CC1.Cc1ccc(S(=O)(=O)[O-])cc1 [ASM-024, Tosylate] ; field requested: IC50
-- reply 176 µM

###

- System: H82 small cell lung carcinoma
- protocol-text: Cell proliferation assay, H82 (CellTiter fluorescence)
- Assay type: cell-based
- assay-setup: Homo sapiens, NCI-H82, 144 h; H82, day 6 in culture; read-out: IC50 Day 6
Counter-ions that a name gives are not always drawn.
measurement-name: pIC50
Numbers only, as −log10 of the molar value.

Here is how some compounds turned out for pIC50.
CC[N+]1(CC)CCCN(c2ccccc2)CC1.Cc1ccc(S(=O)(=O)[O-])cc1 [ASM-024, Tosylate] | 3.66
CC[N+]1(CC)CCCN(c2ccc(F)cc2)CC1 [ASM-049, Tosylate] | 3.60

// switching to the query compound
-- ask Query (compound): CC[N+]1(CC)CCCN(c2ccc(Cl)cc2)CC1 [ASM-048, Tosylate] ; field requested: pIC50
-- reply 3.75

# credit: patent US10507212B2
